The measured values listed here are drawn from PubChem BioAssay AID1159580.

Record form. Attribute: normalized growth. Fill in for each entry.
experimental protocol: chemical genetic growth profiling, strain panel (AID 1159580);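 further: tested at 20 µM; growth read once vehicle control cultures reached saturation at 30 °C; 1 = growth at the plate median or of vehicle wells; lower values mean less growth of the strain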
condition context: S. cerevisiae deletion strains, growth OD, locus YPR106W, strain ISR1, stronger effect = lower value
The whole screen tested about 5,500 compounds, of which about 2,000 (36%) were called active. Not shown: some 18% with an inconclusive outcome. Some of the results follow.
Answer field: number only, no words.

Return the recorded normalized growth value; entry: CC(C)Sc1c(Cl)cccc1NC(=O)Nc1ccccc1
0.964

Tell me normalized growth reported for CCOC(=O)c1ccc(N=Cc2cc(Cl)cc(Cl)c2O)cc1
0.958

Fill in reported normalized growth for this entry: O=C(NCc1ccc2c(c1)OCO2)c1cc2ccccc2s1
0.882

Quote normalized growth reported for O=[N+]([O-])c1cc(C(F)(F)F)ccc1Sc1n[nH]c(-c2cc(Cl)cc(Cl)c2)n1 please.
0.944

Consider the compound S=C(NCc1cccs1)Nc1cc(Cl)cc(Cl)c1 and give its recorded normalized growth.
0.948

Quote normalized growth reported for O=C(Nc1ccccc1Sc1ccc(C(F)(F)F)cc1[N+](=O)[O-])C(Cl)Cl please.
0.996

Look up and report measured normalized growth for this entry: CC(C)Sc1c(Cl)cccc1NC(=O)Nc1cccc(C(F)(F)F)c1
0.976

Respond only with normalized growth recorded for O=C(Nc1cc(Cl)cc(Cl)c1)c1cc(Cl)ccc1O
0.956

// fetch normalized growth given entry O=C(Nc1ccc(F)cc1F)c1cc(Cl)ccc1O
0.94

Report normalized growth, nothing else, for this compound: COc1cc(C2SCCS2)cc(Br)c1OC(=O)NC(=O)c1c(Cl)cccc1Cl
0.957

Fill in normalized growth for record COc1ccc(OC)c2nc3c(nc12)C(=O)c1ccccc1-3
0.98

---

experimental protocol: chemical genetic growth profiling, strain panel (AID 1159580);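 further: tested at 20 µM; growth read once vehicle control cultures reached saturation at 30 °C; 1 = growth at the plate median or of vehicle wells; lower values mean less growth of the strain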
condition context: S. cerevisiae deletion strains, growth OD, locus YER016W, strain bim1
Among all 5,500 compounds or so, about 2,000 (36%) were called active. About 18% were inconclusive and are not listed. Cut-off read from the data, not from the text of the source: active = normalized growth mostly below about 0.91 (no sharp cut-off); inconclusive = no clear call, values can overlap the other calls; inactive = mostly above about 0.92. The list shows a part of the results.
Would you mind answering with one of these outcomes? active, inactive

Can you look up the reported call for CC(=O)Nc1c(I)cc(I)c(C(=O)O)c1I for me?
inactive

Would you mind telling me which call this test gave O=C(/C=C/c1ccccc1)c1ccc(O)cc1O ?
active

Tell me the assay call for CC(C)C1CCC(C(=O)N[C@@H](Cc2ccccc2)C(=O)O)CC1 (stereo not given in full) please.
inactive

// param item: CC(C)N1C(=O)c2ccccc2NS1(=O)=O ; yields the recorded call
inactive

For OC[C@H]1O[C@@H](Oc2ccc(O)cc2)[C@H](O)[C@@H](O)[C@@H]1O , what call appears in the results of this test?
inactive

Query: recorded result category for CC(=O)c1c(O)cc(O)cc1O in this test
inactive

So what was the verdict on CC(=O)OC1CCC23CC1(C)CCC2C(C)(C)CC3OC(C)=O (stereo not given) in this test?
inactive

Kindly provide the recorded test outcome for the following compound: COc1ccccc1OCC(O)COC(N)=O (stereo not given)
inactive

What was the test verdict on Oc1cccc2cccnc12 ?
active

Status in this test for CNC(=O)Oc1ccccc1OC(C)C ?
inactive

Returns: the outcome recorded for O=C(/C=C/c1ccc(O)cc1)c1ccc(O)cc1O in this assay.
inactive

Give the logged outcome of this assay for the following compound: NS(=O)(=O)c1cc2c(cc1Cl)NCNS2(=O)=O
inactive

Per the assay record, what outcome was assigned to O=C(c1ccccc1)c1ccc2n1CCC2C(=O)O (stereo not given) ?
inactive

Look up the recorded call for CC(NC(C)(C)C)C(=O)c1cccc(Cl)c1 (stereo not given) in this test.
inactive

What did the test return for COC(=O)C[C@H]1C(C)(C)[C@@H](OC(C)=O)[C@@H]2CC3=C4CC(=O)O[C@@H](c5ccoc5)[C@]4(C)CCC3[C@@]1(C)C2=O (stereo not given in full) ?
inactive

Please share the test call associated with Cn1c(=O)[nH]c2nc[nH]c2c1=O .
inactive

Given NC(Cc1ccc(Cl)cc1)C(=O)O (stereo not given) , state the outcome it received in this test.
inactive

Recorded test call requested for O=C1NS(=O)(=O)c2ccccc21
inactive

Entry O=C(O)CC[N+](=O)[O-] : call = ?
inactive

What classification did CCC[C@@H]1C[C@@H](C(=O)N[C@H]([C@H]2O[C@H](SC)[C@H](O)[C@@H](O)[C@H]2O)[C@H](C)O)N(C)C1 end up with in this test?
inactive

Recorded test call requested for O=C(O)c1cccnc1C(=O)O
inactive

Status in this test for O=C(/C=C/c1ccc(O)cc1)c1ccccc1O ?
active

Test call, this compound: COCC1=C(C(=O)OC(C)OC(=O)OC(C)C)N2C(=O)[C@@H](NC(=O)/C(=N\OC)c3csc(N)n3)[C@H]2SC1 (stereo not given in full)
inactive

# outcome recorded in this test, key = O=C(/C=C/c1ccccc1)c1ccc(O[C@@H]2O[C@H](CO)[C@@H](O)[C@H](O)[C@H]2O)cc1O
active

# outcome recorded in this test, key = CC(=O)CCCCn1c(=O)c2c(ncn2C)n(C)c1=O
inactive
